Target: G9a (GST-mG9a) (Mus musculus)
Sequence (Q9Z148 whole entry): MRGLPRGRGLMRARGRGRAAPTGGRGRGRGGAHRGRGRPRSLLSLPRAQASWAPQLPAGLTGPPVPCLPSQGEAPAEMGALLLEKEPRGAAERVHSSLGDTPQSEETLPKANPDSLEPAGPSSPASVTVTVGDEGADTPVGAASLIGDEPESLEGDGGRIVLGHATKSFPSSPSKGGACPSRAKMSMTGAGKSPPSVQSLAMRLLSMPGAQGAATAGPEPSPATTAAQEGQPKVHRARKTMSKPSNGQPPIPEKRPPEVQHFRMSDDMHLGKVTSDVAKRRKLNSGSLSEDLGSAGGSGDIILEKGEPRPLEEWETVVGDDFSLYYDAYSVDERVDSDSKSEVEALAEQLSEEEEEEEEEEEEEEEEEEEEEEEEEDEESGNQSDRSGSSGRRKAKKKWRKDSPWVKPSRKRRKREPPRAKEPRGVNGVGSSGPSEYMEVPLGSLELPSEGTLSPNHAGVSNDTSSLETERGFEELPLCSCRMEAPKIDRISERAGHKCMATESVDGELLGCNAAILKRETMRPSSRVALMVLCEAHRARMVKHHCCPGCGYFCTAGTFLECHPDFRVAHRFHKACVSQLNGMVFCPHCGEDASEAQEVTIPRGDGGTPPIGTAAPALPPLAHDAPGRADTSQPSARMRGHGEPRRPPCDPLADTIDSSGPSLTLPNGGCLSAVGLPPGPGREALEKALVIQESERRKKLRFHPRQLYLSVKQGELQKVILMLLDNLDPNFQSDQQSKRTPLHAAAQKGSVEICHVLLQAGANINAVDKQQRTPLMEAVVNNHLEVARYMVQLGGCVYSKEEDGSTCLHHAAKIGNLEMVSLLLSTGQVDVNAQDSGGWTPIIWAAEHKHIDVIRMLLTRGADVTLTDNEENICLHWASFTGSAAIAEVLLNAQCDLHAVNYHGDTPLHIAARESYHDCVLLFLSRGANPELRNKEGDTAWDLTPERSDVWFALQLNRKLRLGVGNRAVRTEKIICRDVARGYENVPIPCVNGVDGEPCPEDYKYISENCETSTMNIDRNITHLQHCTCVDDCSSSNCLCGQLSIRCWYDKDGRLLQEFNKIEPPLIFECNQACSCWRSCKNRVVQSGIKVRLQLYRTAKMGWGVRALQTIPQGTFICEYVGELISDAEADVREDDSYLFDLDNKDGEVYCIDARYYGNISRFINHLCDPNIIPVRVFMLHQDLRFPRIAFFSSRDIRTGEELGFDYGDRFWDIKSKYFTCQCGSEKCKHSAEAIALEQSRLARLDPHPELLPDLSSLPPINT
Assay: Assay for measuring histone methyltransferase activity using peptidyl MCA, inhibitor evaluation with G9a
Assay type: biochemical
Settings: IC50 for G9a, Example 14; Ac-histone H3 (1-9)-MCA; AMC fluorescence λex 390 nm/λem 460 nm; left panel of FIG. 27
measurement kind: pIC50
Quick note: pIC50 values are minus log10 of concentrations in mol/L.

Exercise: Form: Entry = CN1C(=O)[C@]23CC4=CC=C[C@H](O)[C@H]4N2C(=O)[C@@]1(CO)SS3 | System = G9a (GST-mG9a) (Mus musculus) | pIC50 = ____
Key: 5.74
